// data source = patent US20220220100A1

Hi there, I'd appreciate the recorded Sulfone (%) for every entry that follows.
Assay: Photostability: xenon arc weathering of chromophore solutions, LCMS analysis
Format: physicochemical
Details: 10 wt % in Rhodiasolv IRIS; xenon arc, 82° C. bp; linearly interpolated to 0.5 MJ/m2 @ 340 nm
Reply with a number, then the unit it belongs to.

Fill in the blank: the reported Sulfone (%) of COCCOc1cc2oc(-c3ccc(C(C)(C)C)cc3)c(C3=C(c4cc(-c5ccc(C(C)(C)C)s5)sc4-c4ccc(C(C)(C)C)s4)C(F)(F)C(F)(F)C3(F)F)c2cc1OCCOC is ____.
0.0%

Please give the measured Sulfone (%) for this molecule: COCCCOc1cc2oc(-c3ccc(C(C)(C)C)cc3)c(C3=C(c4cc(-c5cc6c(s5)C(C)(C)CCC6(C)C)sc4-c4cc5c(s4)C(C)(C)CCC5(C)C)C(F)(F)C(F)(F)C3(F)F)c2cc1OCCCOC
0.4%

Request the reported Sulfone (%) associated with CC(C)(C)c1ccc(-c2oc3cc(OCCN4C(=O)CCC4=O)c(OCCN4C(=O)CCC4=O)cc3c2C2=C(c3cc(-c4cc(C(C)(C)C)cs4)sc3-c3cc(C(C)(C)C)cs3)C(F)(F)C(F)(F)C2(F)F)cc1
0.0%

Param item = CCOC(=O)CCCOc1cc2oc(-c3ccc(C(C)(C)C)cc3)c(C3=C(c4cc(-c5cc6c(s5)C(C)(C)CCC6(C)C)sc4-c4cc5c(s4)C(C)(C)CCC5(C)C)C(F)(F)C(F)(F)C3(F)F)c2cc1OCCCC(=O)OCC ; retrieve measured Sulfone (%).
0.0%

Endpoint output: Sulfone (%) of COCCCOc1cc2oc(-c3ccc(C(C)(C)C)cc3)c(C3=C(c4cc(-c5cc(C(C)(C)C)cs5)sc4-c4cc(C(C)(C)C)cs4)C(F)(F)C(F)(F)C3(F)F)c2cc1OCCCOC . Value?
0.1%

Consider the molecule shown here: CC(C)(C)c1ccc(-c2oc3cc(OCCN4CCOC4=O)c(OCCN4CCOC4=O)cc3c2C2=C(c3cc(-c4cc5c(s4)C(C)(C)CCC5(C)C)sc3-c3cc4c(s3)C(C)(C)CCC4(C)C)C(F)(F)C(F)(F)C2(F)F)cc1 What is its recorded Sulfone (%)?
0.0%

* * *

Test: Photostability: xenon arc weathering of chromophore solutions, LCMS analysis
Assay type: physicochemical
Settings: 10 wt % in Rhodiasolv IRIS; xenon arc, 82° C. bp; linearly interpolated to 0.5 MJ/m2 @ 340 nm of exposure energy
Please provide measured Chromophore Remaining (%) for the entries that follow.
Field: value (include unit after the number)

What Chromophore Remaining (%) value was documented for this molecule, COCCOc1cc2oc(-c3ccc(C(C)(C)C)cc3)c(C3=C(c4cc(-c5ccc(C(C)(C)C)s5)sc4-c4ccc(C(C)(C)C)s4)C(F)(F)C(F)(F)C3(F)F)c2cc1OCCOC ?
80.4%

May I ask what Chromophore Remaining (%) has been recorded for CC(C)(C)c1ccc(-c2oc3cc(OCCN4C(=O)CCC4=O)c(OCCN4C(=O)CCC4=O)cc3c2C2=C(c3cc(-c4cc(C(C)(C)C)cs4)sc3-c3cc(C(C)(C)C)cs3)C(F)(F)C(F)(F)C2(F)F)cc1 ?
95.3%

Using the record for CCOC(=O)CCCOc1cc2oc(-c3ccc(C(C)(C)C)cc3)c(C3=C(c4cc(-c5cc6c(s5)C(C)(C)CCC6(C)C)sc4-c4cc5c(s4)C(C)(C)CCC5(C)C)C(F)(F)C(F)(F)C3(F)F)c2cc1OCCCC(=O)OCC , report its Chromophore Remaining (%).
100.0%
